protocol-description: Stability of linkers L1-L4 conjugated to FGF21 (LC-MS)
Assay type: physicochemical
details: +4° C., 24 hrs
measured-attribute: 0 linker (unconjugated protein) (%)
# output: bare number, implied unit %

Challenge: Using the record for L4-FGF21ΔH-A129C: Linker-4 conjugated to FGF21ΔH-A129C protein (Table 4; Table 5 row L4) (conjugate, UniProt Q9NSA1 29-209, looked up, variant H1* A129C, Linker-4 attached) Fibroblast growth factor 21: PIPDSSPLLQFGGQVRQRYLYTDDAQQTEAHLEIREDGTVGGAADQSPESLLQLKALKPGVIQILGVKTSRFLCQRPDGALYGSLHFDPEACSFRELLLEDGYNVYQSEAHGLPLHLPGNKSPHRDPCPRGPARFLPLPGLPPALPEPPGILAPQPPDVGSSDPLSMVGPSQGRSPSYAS , report its 0 linker (unconjugated protein).
Response given: 20

Challenge: Using the record for L1-FGF21ΔH-A129C: Linker-1 conjugated to FGF21ΔH-A129C protein (Table 4; Table 5 row L1) (conjugate, UniProt Q9NSA1 29-209, looked up, variant H1* A129C, Linker-1 attached) Fibroblast growth factor 21: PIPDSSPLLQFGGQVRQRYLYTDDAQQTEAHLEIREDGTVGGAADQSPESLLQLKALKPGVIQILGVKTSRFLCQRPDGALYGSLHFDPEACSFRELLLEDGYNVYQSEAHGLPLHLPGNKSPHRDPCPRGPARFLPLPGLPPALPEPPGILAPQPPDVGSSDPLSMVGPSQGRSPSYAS , report its 0 linker (unconjugated protein).
Response given: 14

Challenge: Using the record for L3-FGF21ΔH-A129C: Linker-3 conjugated to FGF21ΔH-A129C protein (Table 4; Table 5 row L3) (conjugate, UniProt Q9NSA1 29-209, looked up, variant H1* A129C, Linker-3 attached) Fibroblast growth factor 21: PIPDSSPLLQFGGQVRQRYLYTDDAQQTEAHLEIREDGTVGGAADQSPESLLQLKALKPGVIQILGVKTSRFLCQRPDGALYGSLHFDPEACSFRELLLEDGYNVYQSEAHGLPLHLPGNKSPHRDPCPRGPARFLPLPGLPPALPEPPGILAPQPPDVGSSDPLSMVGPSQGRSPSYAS , report its 0 linker (unconjugated protein).
Response given: 18

Challenge: Using the record for L2-FGF21ΔH-A129C: Linker-2 conjugated to FGF21ΔH-A129C protein (Table 4; Table 5 row L2) (conjugate, UniProt Q9NSA1 29-209, looked up, variant H1* A129C, Linker-2 attached) Fibroblast growth factor 21: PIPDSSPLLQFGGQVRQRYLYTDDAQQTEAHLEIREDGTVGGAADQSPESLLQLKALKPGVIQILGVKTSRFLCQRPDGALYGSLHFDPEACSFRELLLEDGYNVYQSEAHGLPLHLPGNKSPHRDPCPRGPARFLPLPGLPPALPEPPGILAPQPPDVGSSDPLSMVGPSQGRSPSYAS , report its 0 linker (unconjugated protein).
Response given: 23
